tested on: U251 CNS
Lab note: assign the record to one of active, inactive

Look over these answered cases.
- structure: "O=c1c2c(=NCCN3CCCC3)cc3c(=O)n(CCCN4CCOCC4)c(=O)c4ccc(c(O)n1CCCN1CCOCC1)c2c4-3"
  measurement-target: "U251 CNS"
  label-value: "active"
- structure: "COc1cc(C(=O)O/N=C(\\N)Cc2cccc3ccccc23)cc(OC)c1OC"
  measurement-target: "U251 CNS"
  label-value: "inactive"
- structure: "O=C1NC(=O)[C@@H](c2c[nH]c3ccccc23)[C@@H]1c1c[nH]c2ccccc12"
  measurement-target: "U251 CNS"
  label-value: "inactive"

Query compound follows.
Inquiry: Hi, do you know how O=C(Cc1ccc(Nc2ccnc(C(F)(F)F)c2)cc1)Nc1cc(Cl)ccc1O came out in this test?
Reply text: inactive
